# System: MDA-MB-435
# method: NCI-60 one-dose assay
# Assay type: cell-based
# applied conditions: Homo sapiens, MDA-MB-435 (Melanoma), read-out: Cell Inhibition Percent
Reported inhibition at 10 µM values for the following compounds.
result type: inhibition at 10 µM (%)

structure_smiles=O=C(NN=Cc1ccc([N+](=O)[O-])cc1)c1ccc2[nH]c(-c3ccc(Cl)cc3)nc2c1 test_value=52.4
structure_smiles=O=C(N/N=C/c1ccc(O)cc1)c1ccc2[nH]c(-c3ccc(Cl)cc3)nc2c1 test_value=0
structure_smiles=CCn1c(-c2ccc3[nH]c(-c4ccc(Cl)cc4)nc3c2)n[nH]c1=S test_value=0
structure_smiles=O=C(NN=Cc1ccccc1)c1ccc2[nH]c(-c3ccc(Cl)cc3)nc2c1 test_value=0
